TEST_METHOD_NOTES: clinical
APPLIED_CONDITIONS: human, in vivo
Counter-ions that a name gives are not always drawn.

- COMPOUND: "CCCCN1CCCCC1C(=O)Nc1c(C)cccc1C (stereo not shown) [Bupivacaine HCl]"
  AUC(0-inf): "30 to 2210 ng·h/mL"
